Form field: TGI (one value per entry).
Test system: DMS 114 small cell lung
Experimental protocol: NCI tumour cell line growth inhibition, 48 h
Where a SMILES comes first, the peptide text is derived from it. [ ]: non-standard residue; d: D form. The star is where a group is joined. ξ: configuration not given here. NMeF = CN[C@@H](Cc1ccccc1)C(=O)O; NMeV = CN[C@H](C(=O)O)C(C)C; ξNMeV = CNC(C(=O)O)C(C)C; Boc = CC(C)(C)OC(=O)*; OBn = c1ccc(CO*)cc1
Measured parameter: TGI

1. NC(=O)c1ncn(C2OC(CO)C(O)C2O)c1O (stereo not given)	> 100 µM
2. CC12CCc3ccccc3C1=NNC(=O)C2 (stereo not given)	> 100 µM
3. CCCCCCCCCCCCCS(=O)(=O)NCC(N)=O	> 100 µM
4. CC(=O)CC(=O)Nc1ccccc1C(F)(F)F	> 100 µM
5. CCN(CC)c1ccc(C2N3CCCCC3[C@@H]3c4[nH]c5ccccc5c4CCN23)cc1 (stereo not given in full)	33.1 µM
6. CN(C)CCC[N+]1=Nc2cccc3cccc(c23)N1	> 100 µM
7. CC(C)C(C(=O)N(C)[C@H](C(=O)N1CCC[C@H]1C(=O)N(C)[C@@H](Cc1ccccc1)C(=O)OCc1ccccc1)C(C)C)N(C)C(=O)[C@@H](NC(=O)OC(C)(C)C)C(C)C (stereo not given in full) (Boc-V[ξNMeV][NMeV]P[NMeF]-OBn)	> 31.6 µM
8. O=S(O)c1cc(Cl)c(O)c(Cl)c1	> 100 µM
9. CCN(CC)c1c(C)nnn1C1OC(COC(C)=O)C(OC(C)=O)C(OC(C)=O)C1OC(C)=O (stereo not given)	> 100 µM
10. CC1=C2C=CC(=O)C[C@@]2(C)CCC1	> 100 µM

====

Test system: COLO 205 colon
Experimental protocol: NCI tumour cell line growth inhibition, 48 h
This listing pairs molecules with measured GI50.
Measured parameter: GI50

1) O=C(C(=CN1CCN(C(=O)c2ccco2)C1=S)C(=O)c1ccccc1)c1ccccc1	20 µM
2) CN(CCCCCl)P(=O)(OCc1ccc([N+](=O)[O-])o1)OCC1OC(n2cc([N+](=O)[O-])c(=O)[nH]c2=O)CC1O (configuration not stated)	44 µM
3) COC(=O)c1cc(-c2ccc(S(C)(=O)=O)cc2)[nH]c1N/N=C/c1c(Cl)cccc1Cl	0.491 µM
4) CC(=O)[CH-]C(=O)c1ccccc1.CC(=O)[CH-]C(=O)c1ccccc1.CC(=O)[CH-]C(=O)c1ccccc1.[Ga+3]	17.7 µM
5) C[C@]12CCC(=O)C[C@@H]1CC[C@@H]1[C@@H]2CC[C@]2(C)[C@@H](OC(=O)N(CCCl)N=O)CC[C@@H]12	1.7 µM
6) C=C(C)C(=O)Nc1ccc(-c2c(-c3ccc(Oc4nccc(C)n4)c(F)c3)c3c(N)ncnc3n2C)cc1	3.79 µM
7) CCS(=O)(=O)c1ccc(OC)c(Nc2ncc(-c3cccc(F)c3)o2)c1	> 25 µM
8) O=C(CI)Nc1ccc(Br)cc1	1.85 µM
9) N#Cc1c(N)nc(N2CCOCC2)c(C#N)c1-c1c(Cl)cccc1Cl	7.14 µM
10) COc1cnccc1Nc1nc(-c2nn(Cc3c(F)cc(OCCO)cc3F)c3ccccc23)ncc1OC	17.7 µM
11) N#CC1=C(N)OC2=C(CCOc3c2ccc2ccccc32)C1c1ccc(Br)cc1 (configuration not stated)	29 µM
12) COc1cc(C(=O)O[C@H](C(=O)NCCCCNC(=O)[C@@H](OC(=O)c2cc(OC)cc3c(C)cccc23)[C@]2(C)CO2)[C@]2(C)CO2)c2cccc(C)c2c1	0.111 µM
